Biological target: Muscarinic acetylcholine receptor M3 (Homo sapiens, UniProt P20309)
Experiment: Antagonist activity at cloned muscarinic M3 receptor expressed in CHO cells by measuring calcium mobilization
attribute measured: log10(IC50) (log10 of the value in nM)
Form field - Quantity: IC50; Unit: nM; Scale: log10

Below, 6 compounds whose answers are already recorded.
CN1[C@@H]2CC[C@H]1C[C@@H](OC(=O)N(Cc1ccccc1Br)c1ccccc1)C2 = 3.06
CN1[C@@H]2CC[C@H]1C[C@@H](OC(=O)N(Cc1cccc(Br)c1)c1ccccc1)C2 = 3.36
Cc1ccoc1CN(C(=O)O[C@@H]1C[C@H]2CC[C@@H](C1)N2C)c1ccccc1 = 2.63
C[N+]1(C)[C@@H]2CC[C@H]1C[C@H](OC(=O)N(Cc1cccc(Br)c1)c1ccccc1)C2 = 2.53
COc1ccc(CN(C(=O)O[C@H]2C[C@H]3CC[C@@H](C2)N3C)c2ccccc2)cc1 = 2.89
CN1[C@@H]2CC[C@H]1C[C@@H](OC(=O)N(CC1CCCCC1)c1ccsc1)C2 = 2.04

Lab note: next compound to report on.
Exercise: Please report the recorded log10(IC50) for CN1[C@@H]2CC[C@H]1C[C@H](OC(=O)N(Cc1ccccc1)c1ccccc1)C2 .
Solution: 1.87

====

Target: Muscarinic acetylcholine receptor M3 (Homo sapiens)
Assay: Antagonist activity at cloned muscarinic M3 receptor expressed in CHO cells by measuring calcium mobilization
Response field label: string, one of true (IC50 strictly below 20 nM) or false.

COc1cccc(CN(C(=O)O[C@@H]2C[C@H]3CC[C@@H](C2)[N+]3(C)C)c2ccccc2)c1 = false

Exercise: Could you please tell me whether IC50 recorded for C[N+]1(C)[C@@H]2CC[C@H]1C[C@H](OC(=O)N(Cc1ccoc1)c1ccccc1)C2 is less than 20 nM?
Solution: true

Exercise: Please check: IC50 for C[N+]1(C)[C@@H]2CC[C@H]1C[C@H](OC(=O)N(Cc1ccccc1)c1ccccc1)C2.[Br-] , strictly under 20 nM or not?
Solution: true

Exercise: Does the reported IC50 of the following compound sit strictly below 20 nM? COc1cccc(CN(C(=O)O[C@@H]2C[C@H]3CC[C@@H](C2)N3C)c2ccccc2)c1
Solution: false

Exercise: Hello, is IC50 of the following compound strictly smaller than 20 nM? Cc1ccsc1CN(C(=O)O[C@H]1C[C@H]2CC[C@@H](C1)N2C)c1ccccc1
Solution: false

Exercise: Hello, I'm reviewing records and need to know if IC50 of C[N+]1(C)[C@@H]2CC[C@H]1C[C@H](OC(=O)N(Cc1ccccc1)c1cccs1)C2.[Br-] is below 20 nM. Could you check?
Solution: true

Exercise: hey, is IC50 for C[N+]1(C)[C@@H]2CC[C@H]1C[C@H](OC(=O)N(Cc1ccccc1Br)c1ccccc1)C2 lower than 20 nM or not?
Solution: false

====

# Ratio IC50 annotations
Target: Muscarinic acetylcholine receptors; M2 & M3 (Homo sapiens) (UniProt P20309+P08172)
Assay: Selectivity for cloned muscarinic M3 receptor over cloned muscarinic M2 receptor
API doc: respond with a numeric literal and nothing else, no unit.

Answered examples (3):
C[N+]1(C)[C@@H]2CC[C@H]1C[C@H](OC(=O)N(Cc1ccc(Br)cc1)c1ccccc1)C2 = 7.1
C[N+]1(C)[C@@H]2CC[C@H]1C[C@@H](OC(=O)N(Cc1ccsc1)c1ccsc1)C2.[Br-] = 7.2
CN1[C@@H]2CC[C@H]1C[C@H](OC(=O)N(Cc1cccs1)c1ccccc1)C2 = 1.9

Exercise: Form field: reported Ratio IC50 of Cc1ccoc1CN(C(=O)O[C@@H]1C[C@H]2CC[C@@H](C1)N2C)c1ccccc1
Solution: 1.1

====

Molecular target: Muscarinic acetylcholine receptor M1 (Homo sapiens)
Test: Antagonist activity at cloned muscarinic M1 receptor expressed in CHO cells by measuring calcium mobilization
attribute measured: IC50 (nM)
Express your answer in nM, writing the number without its unit.

Example entries and their recorded answers appear below.
CN1[C@@H]2CC[C@H]1C[C@@H](OC(=O)N(Cc1ccc(C#N)cc1)c1ccsc1)C2 = 75.8
CN1[C@@H]2CC[C@H]1C[C@H](OC(=O)N(Cc1ccc(Br)cc1)c1ccccc1)C2 = 813

Okay, next one:
Exercise: Fill in: IC50 of CN1[C@@H]2CC[C@H]1C[C@H](OC(=O)N(Cc1ccccc1)c1ccsc1)C2 is ___
Solution: 19.1

====

Biological target: Muscarinic acetylcholine receptor M1 and M3 (Homo sapiens) (UniProt P20309+P11229)
Sequence (P11229 whole entry, looked up): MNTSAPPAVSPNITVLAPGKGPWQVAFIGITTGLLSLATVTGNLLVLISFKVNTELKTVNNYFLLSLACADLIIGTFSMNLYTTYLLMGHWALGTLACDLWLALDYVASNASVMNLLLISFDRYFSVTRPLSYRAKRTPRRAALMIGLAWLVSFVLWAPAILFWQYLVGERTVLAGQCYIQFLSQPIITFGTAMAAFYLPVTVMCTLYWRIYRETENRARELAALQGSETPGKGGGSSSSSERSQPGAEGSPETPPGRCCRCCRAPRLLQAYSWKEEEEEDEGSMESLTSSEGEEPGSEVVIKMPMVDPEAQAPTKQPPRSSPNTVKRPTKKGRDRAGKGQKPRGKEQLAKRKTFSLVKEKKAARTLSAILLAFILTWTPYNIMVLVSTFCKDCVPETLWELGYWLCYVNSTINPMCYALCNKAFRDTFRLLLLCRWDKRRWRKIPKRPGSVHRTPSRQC
Sequence (P20309 whole entry, looked up): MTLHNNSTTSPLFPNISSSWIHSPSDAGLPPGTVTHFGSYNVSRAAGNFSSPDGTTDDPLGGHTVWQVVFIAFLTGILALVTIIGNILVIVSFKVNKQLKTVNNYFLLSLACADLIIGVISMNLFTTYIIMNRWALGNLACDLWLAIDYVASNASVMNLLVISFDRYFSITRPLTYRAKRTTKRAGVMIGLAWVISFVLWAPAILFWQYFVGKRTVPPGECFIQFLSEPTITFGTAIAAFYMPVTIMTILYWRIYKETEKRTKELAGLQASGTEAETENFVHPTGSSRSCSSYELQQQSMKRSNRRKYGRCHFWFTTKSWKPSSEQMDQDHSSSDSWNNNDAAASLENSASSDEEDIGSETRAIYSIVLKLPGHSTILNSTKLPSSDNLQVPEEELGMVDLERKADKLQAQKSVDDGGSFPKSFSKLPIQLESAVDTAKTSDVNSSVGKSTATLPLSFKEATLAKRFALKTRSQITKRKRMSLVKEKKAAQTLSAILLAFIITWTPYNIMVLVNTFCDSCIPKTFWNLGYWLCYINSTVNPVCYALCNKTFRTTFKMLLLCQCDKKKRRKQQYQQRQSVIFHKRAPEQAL
Assay: Selectivity for cloned muscarinic M3 receptor over cloned muscarinic M1 receptor
Readings of Ratio IC50 for the listed molecules
Answer using only a numeral; do not append any unit.

In the examples that follow, each entry is paired with its recorded Ratio IC50.
C[N+]1(C)[C@@H]2CC[C@H]1C[C@@H](OC(=O)N(Cc1ccc(C#N)cc1)c1ccccc1)C2 = 0.4
C[N+]1(C)[C@@H]2CC[C@H]1C[C@H](OC(=O)N(Cc1ccccc1)c1ccsc1)C2.[Br-] = 1
C[N+]1(C)[C@@H]2CC[C@H]1C[C@@H](OC(=O)N(Cc1ccsc1)c1ccccc1)C2.[Br-] = 0.9

Exercise: Requested read-out: Ratio IC50. Entry: CN1[C@@H]2CC[C@H]1C[C@H](OC(=O)N(Cc1ccccc1)c1ccccc1)C2
Solution: 2.2

Exercise: Looking for the measured Ratio IC50 of Cc1ccsc1CN(C(=O)O[C@H]1C[C@H]2CC[C@@H](C1)N2C)c1ccccc1 , can you help?
Solution: 1.1

Exercise: Please give the measured Ratio IC50 for this molecule: CN1[C@@H]2CC[C@H]1C[C@@H](OC(=O)N(Cc1ccccc1Br)c1ccccc1)C2
Solution: 1.2

Exercise: Name the recorded Ratio IC50 for C[N+]1(C)[C@@H]2CC[C@H]1C[C@H](OC(=O)N(Cc1cccs1)c1ccccc1)C2.[Br-] .
Solution: 1

Exercise: Query: Ratio IC50; subject: COc1ccc(CN(C(=O)O[C@H]2C[C@H]3CC[C@@H](C2)N3C)c2ccccc2)cc1
Solution: 0.9

Exercise: Which measured Ratio IC50 value corresponds to C[N+]1(C)[C@@H]2CC[C@H]1C[C@H](OC(=O)N(CC1CCCCC1)c1ccsc1)C2 ?
Solution: 0.5

Exercise: Can you share its Ratio IC50? I mean this molecule: COc1cccc(CN(C(=O)O[C@@H]2C[C@H]3CC[C@@H](C2)[N+]3(C)C)c2ccccc2)c1
Solution: 0.6

Exercise: State the recorded Ratio IC50 for this entry: CN1[C@@H]2CC[C@H]1C[C@@H](OC(=O)N(Cc1cccc(Br)c1)c1ccccc1)C2
Solution: 0.9

Exercise: Suppose we examine the molecule CN1[C@@H]2CC[C@H]1C[C@H](OC(=O)N(Cc1cccs1)c1ccccc1)C2 ; what Ratio IC50 value has been reported?
Solution: 2.4

Exercise: // returns reported Ratio IC50 for input Cc1ccc(CN(C(=O)O[C@@H]2C[C@H]3CC[C@@H](C2)[N+]3(C)C)c2ccccc2)s1
Solution: 0.8

====

Biological target: Muscarinic acetylcholine receptor M1 (Homo sapiens, UniProt P11229)
Experiment: Antagonist activity at cloned muscarinic M1 receptor expressed in CHO cells by measuring calcium mobilization
pIC50: −log10 of the molar value.
Rule: pIC50 under 7 gives no, otherwise yes.

C[N+]1(C)[C@@H]2CC[C@H]1C[C@H](OC(=O)N(Cc1cccs1)c1ccccc1)C2.[Br-] = yes
C[N+]1(C)[C@@H]2CC[C@H]1C[C@@H](OC(=O)N(Cc1cccc(C#N)c1)c1ccsc1)C2 = yes
C[N+]1(C)[C@@H]2CC[C@H]1C[C@H](OC(=O)N(Cc1ccc(Br)cc1)c1ccccc1)C2 = yes
CN1[C@@H]2CC[C@H]1C[C@@H](OC(=O)N(Cc1cccc(Br)c1)c1ccccc1)C2 = no
C[N+]1(C)[C@@H]2CC[C@H]1C[C@H](OC(=O)N(Cc1ccccc1Br)c1ccccc1)C2 = no
CN1[C@@H]2CC[C@H]1C[C@@H](OC(=O)N(Cc1ccccc1Br)c1ccccc1)C2 = no
CN1[C@@H]2CC[C@H]1C[C@H](OC(=O)N(Cc1ccccc1)c1cccs1)C2 = yes
C[N+]1(C)[C@@H]2CC[C@H]1C[C@H](OC(=O)N(Cc1ccccc1)c1ccccc1)C2.[Br-] = yes

Exercise: Could you verify whether the entry Cc1ccoc1CN(C(=O)O[C@@H]1C[C@H]2CC[C@@H](C1)N2C)c1ccccc1 shows pIC50 of no less than 7?
Solution: no

====

// reported pIC50 for each item listed
Molecular target: Muscarinic acetylcholine receptor M3 (Homo sapiens)
Assay: Antagonist activity at cloned muscarinic M3 receptor expressed in CHO cells by measuring calcium mobilization
# pIC50 is unitless: minus log10 of the molar concentration; print number only

Exercise: Which pIC50 is reported for this compound? Cc1ccsc1CN(C(=O)O[C@H]1C[C@H]2CC[C@@H](C1)[N+]2(C)C)c1ccccc1
Solution: 8.19

Exercise: Can you share its pIC50? I mean this compound: CN1[C@@H]2CC[C@H]1C[C@H](OC(=O)N(Cc1ccccc1)c1ccsc1)C2
Solution: 7.96

Exercise: Query (compound): COc1ccc(CN(C(=O)O[C@H]2C[C@H]3CC[C@@H](C2)[N+]3(C)C)c2ccccc2)cc1 ; field requested: pIC50
Solution: 6.81

Exercise: Given the compound CN1[C@@H]2CC[C@H]1C[C@H](OC(=O)N(Cc1ccsc1)c1ccsc1)C2 , what is its reported pIC50?
Solution: 8.14
